Tested on: Ewing sarcoma cell lines (TC-32, 5838, RD-ES, TC-71, A-673, ES-2, ES-7, ES-8)
method summary: Median GI50 in panel of Ewing sarcoma cell lines
condition notes: read-out: Median GI50 in Ewing sarcoma cell lines; median over 8 Ewing sarcoma cell lines, 72 h
Overview of recorded log10(GI50) for various compounds
measured attribute: log10(GI50) (log10 of the value in nM)

>>> reading("COC(=O)C(Cc1c[nH]c2ccccc12)NC(=O)C(OC)C1Cc2cc3cc(OC4CC(OC5CC(O)C(O)C(C)O5)C(O)C(C)O4)c(C)c(O)c3c(O)c2C(=O)C1OC1CC(OC2CC(OC3CC(C)(O)C(O)C(C)O3)C(O)C(C)O2)C(O)C(C)O1 (centres unmarked) [MTMSA-Trp (3), Mithramycin SA-Tryptophan, reference compound]")
1.67
>>> reading("COC(=O)C(Cc1ccccc1)NC(=O)C(Cc1c[nH]c2ccccc12)NC(=O)C(OC)C1Cc2cc3cc(OC4CC(OC5CC(O)C(O)C(C)O5)C(O)C(C)O4)c(C)c(O)c3c(O)c2C(=O)C1OC1CC(OC2CC(OC3CC(C)(O)C(O)C(C)O3)C(O)C(C)O2)C(O)C(C)O1 (centres unmarked)")
1.81
>>> reading("COC(=O)C(Cc1c[nH]c2ccccc12)NC(=O)C(Cc1c[nH]c2ccccc12)NC(=O)C(OC)C1Cc2cc3cc(OC4CC(OC5CC(O)C(O)C(C)O5)C(O)C(C)O4)c(C)c(O)c3c(O)c2C(=O)C1OC1CC(OC2CC(OC3CC(C)(O)C(O)C(C)O3)C(O)C(C)O2)C(O)C(C)O1 (centres unmarked)")
1.74
>>> reading("C=CCOc1ccc2[nH]cc(CC(NC(=O)C(OC)C3Cc4cc5cc(OC6CC(OC7CC(O)C(O)C(C)O7)C(O)C(C)O6)c(C)c(O)c5c(O)c4C(=O)C3OC3CC(OC4CC(OC5CC(C)(O)C(O)C(C)O5)C(O)C(C)O4)C(O)C(C)O3)C(=O)OC)c2c1 (centres unmarked)")
2.69
>>> reading("COC(=O)C(Cc1c[nH]c2cc(F)ccc12)NC(=O)C(OC)C1Cc2cc3cc(OC4CC(OC5CC(O)C(O)C(C)O5)C(O)C(C)O4)c(C)c(O)c3c(O)c2C(=O)C1OC1CC(OC2CC(OC3CC(C)(O)C(O)C(C)O3)C(O)C(C)O2)C(O)C(C)O1 (centres unmarked)")
2.67

====

Overview of recorded GI50 for various compounds
System: VCaP prostate cancer cells (TMPRSS2-ERG)
method summary: 72 h GI50 assay in VCaP
condition notes: read-out: VCaP Prostate Cancer TMPRSS2-ERG GI50; 72 h growth inhibition, VCaP cells
measured attribute: GI50 (nM)

>>> reading("COC(=O)C(Cc1ccccc1)NC(=O)C(Cc1c[nH]c2ccccc12)NC(=O)C(OC)C1Cc2cc3cc(OC4CC(OC5CC(O)C(O)C(C)O5)C(O)C(C)O4)c(C)c(O)c3c(O)c2C(=O)C1OC1CC(OC2CC(OC3CC(C)(O)C(O)C(C)O3)C(O)C(C)O2)C(O)C(C)O1 (centres unmarked)")
21
>>> reading("C=CCOc1ccc2[nH]cc(CC(NC(=O)C(OC)C3Cc4cc5cc(OC6CC(OC7CC(O)C(O)C(C)O7)C(O)C(C)O6)c(C)c(O)c5c(O)c4C(=O)C3OC3CC(OC4CC(OC5CC(C)(O)C(O)C(C)O5)C(O)C(C)O4)C(O)C(C)O3)C(=O)OC)c2c1 (centres unmarked)")
485
